Test system: CP269
Test: qHTS profiling for inhibitors of Plasmodium falciparum proliferation (AID 504749); further: nearly all actives have a fitted effect of over 60% in size
Conditions: P. falciparum in erythrocytes, SYBR Green DNA, 72 h; series mostly up to 28.7 µM
Records with an inconclusive call do not appear. The source made the active and inactive calls. The call rests on the fitted dose curve; in most records, active means well fitted inhibition curve with a large enough effect; inconclusive means small, poorly fitted or top-dose-only effect; inactive means flat fitted curve, though single readings scatter.
Hi! Could you answer with just one of these? Yes for active, No for inactive

input: What is the recorded call for this compound in the test? N#CC(C#N)=Cc1ccc(O)c(O)c1
output: No

input: State the result this test recorded for CC[N+]1(C)CCCC(OC(=O)C(O)(c2ccccc2)c2ccccc2)C1 (stereo unspecified) .
output: No

input: For CCCC(C)(COC(N)=O)COC(=O)NC(C)C (stereo unspecified) , what call appears in the results of this test?
output: No

input: Could you please tell me the result logged for CCOC(=O)C1(c2ccccc2)CCN(CCC(C#N)(c2ccccc2)c2ccccc2)CC1 in this assay?
output: Yes

input: Entry NCC(O)c1ccc(O)cc1 (stereo unspecified) : call = ?
output: No

input: Which outcome did this test record for the compound CN1CCN(C(=O)O[C@H]2c3nccnc3C(=O)N2c2ccc(Cl)cn2)CC1 ?
output: No

input: How was O=P1(NCCCl)OCCCN1CCCl (stereo unspecified) classified in this test?
output: No

input: Please state the recorded outcome for this compound: CCN(CC)CCN1C(=O)CN=C(c2ccccc2F)c2cc(Cl)ccc21
output: No

input: Test call, this compound: CC(=O)[C@H]1CC[C@H]2[C@@H]3CC[C@H]4C[C@H](O)CC[C@]4(C)[C@H]3C(=O)C[C@]12C
output: No

input: For C#CCOC(C(=O)OCCN(C)C)(c1ccccc1)c1ccccc1 , which call appears in the assay record?
output: No

input: Which result was noted for this compound in the test: CCN(C(C)=O)c1cccc(-c2ccnc3c(C#N)cnn23)c1
output: No
